Protocol notes: Plasma stability, human
Condition summary: % parent remaining at 5 h
Label Satisfied when plasma stability human is strictly below 90 % remaining; otherwise label Not satisfied.

Problem: For the compound CN1CC(=O)N2[C@H](CO)[C@H](c3ccccc3)[C@@H]2C1 [28a] , is plasma stability human under 90 % remaining? Not satisfied

Problem: For the compound CCCN1C(CO)C2c3ccccc3N(C(C)=O)CC21 (racemic) [31b] , is plasma stability human under 90 % remaining? Not satisfied

Problem: For the compound CCCN1[C@H](CO)[C@H](c2ccccc2)C12CN(C(C)=O)C2 [30c] , is plasma stability human under 90 % remaining? Not satisfied

Problem: For the compound CCCN1[C@@H]2COc3ccccc3[C@@H]2[C@@H]1CNC(=O)c1ccccc1 [32a] , is plasma stability human under 90 % remaining? Not satisfied

Problem: For the compound OC[C@@H]1[C@H](c2ccccc2)[C@@H]2CNCCCCN12 [29b] , is plasma stability human under 90 % remaining? Not satisfied

Problem: For the compound CCCN1[C@@H]2COc3ccccc3[C@@H]2[C@@H]1CNS(C)(=O)=O [32b] , is plasma stability human under 90 % remaining? Not satisfied

Problem: For the compound CCCN1C2CN(S(C)(=O)=O)CC1C2c1ccccc1 (stereo not shown) [27c] , is plasma stability human under 90 % remaining? Not satisfied

Problem: For the compound CCCN1[C@H](CO)[C@H](c2ccccc2)C12CN(C)C2 [30b] , is plasma stability human under 90 % remaining? Satisfied

Problem: For the compound CCCN1[C@H](CO)[C@H](c2ccccc2)C12CNC2 [30a] , is plasma stability human under 90 % remaining? Not satisfied

Problem: For the compound CCCN1[C@H](CO)[C@H](c2ccccc2)[C@@H]1C#N [26a] , is plasma stability human under 90 % remaining? Not satisfied

Problem: For the compound CN1CCCCN2[C@H](CO)[C@H](c3ccccc3)[C@@H]2C1 [29c] , is plasma stability human under 90 % remaining? Satisfied

Problem: For the compound CCCN1C2CNCC1C2c1ccccc1 (stereo not shown) [27a] , is plasma stability human under 90 % remaining? Not satisfied

---

Recorded BBB PAMPA, one value per entry.
Protocol notes: BBB parallel artificial membrane permeability assay
Assay type: in vitro ADME
Condition summary: Pe

Reference set, count: 3
Compound | BBB PAMPA
CCCN1C2CN(C(C)=O)CC1C2c1ccccc1 (centres unmarked) [27b] | 15 10^−6 cm s^−1
CCCN1[C@H](CO)[C@H](c2ccccc2)[C@@H]1CN [26b] | 83 10^−6 cm s^−1
CCCN1C(CO)C2c3ccccc3N(S(C)(=O)=O)CC21 (racemic) [31c] | 35 10^−6 cm s^−1

What does the record list as BBB PAMPA for CCCN1C(CO)C2c3ccccc3N(C(C)=O)CC21 (racemic) [31b] ? 14 10^−6 cm s^−1

What does the record list as BBB PAMPA for CCCN1C(CO)C2c3ccccc3NCC21 (racemic) [31a] ? 31 10^−6 cm s^−1

---

Protocol notes: Hepatocyte stability, human
Condition summary: % parent remaining at 2 hour
Value kind: hepatocytes human
Provide the measurement as a number trailed by its unit.

Molecule | hepatocytes human
CCCN1[C@H](CO)[C@H](c2ccccc2)[C@@H]1C#N [26a] | 54 % remaining

What does the record list as hepatocytes human for OC[C@@H]1[C@H](c2ccc(Br)cc2)[C@@H]2CNCCCCN12 [29a] ? 104 % remaining
